Measured values drawn from paper PMC11707192 for this set.

# target_or_system: T1, UHRF1 TTD-PHD (134-366) (human, UniProt Q96T88 134-366)
# T1 sequence (looked up): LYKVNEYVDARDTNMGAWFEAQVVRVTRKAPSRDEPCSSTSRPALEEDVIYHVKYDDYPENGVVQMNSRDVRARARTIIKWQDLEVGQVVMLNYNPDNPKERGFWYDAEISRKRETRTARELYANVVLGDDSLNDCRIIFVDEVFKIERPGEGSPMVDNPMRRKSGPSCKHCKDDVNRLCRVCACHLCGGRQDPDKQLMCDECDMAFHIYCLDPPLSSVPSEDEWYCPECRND
# protocol: ITC
observable: Kd (nM)

(A) EDEWLYSRRGVRTLLSVQREKMARLRYMLLGGVRTHERRPTNKEPKG (peptide, UniProt Q6W0C5 75-121, looked up) [hSTE-1 (peptide of the hSTELLA Swap1 region, residues 75-121)]
(B) QSAFPKRRVRTLLSVLKDPIAKMRRLVRIEQRQKRLEGNE (peptide, UniProt Q8QZY3 80-119, looked up) [mSTE-1 (peptide of the mSTELLA Swap1 region, residues 80-119)]
Task: Lab notebook, comparison: A versus B , higher Kd goes to which? Answer with the label corresponding to your selection.
Result: A
(A: 786 nM, B: 5.84 nM)
